- Test system: CU-ACC1
- ASSAY_PROCEDURE: area under concentration-response curve (viability) (AUC (a.u.)); higher = less active
- RUN_PARAMETERS: 48 h
ATTRIBUTE_MEASURED: area under concentration-response curve

CCCC[S+](=N)([O-])CCC(N)C(=O)O (stereo unspecified) | 472
O=S(=O)([O-])CCS | 539
CN1CCN(c2ccc(C(=O)Nc3n[nH]c4ccc(Cc5cc(F)cc(F)c5)cc34)c(NC3CCOCC3)c2)CC1 | 470
Cc1cc(O)cc2c1[C@]1(C)CC[C@H]3C(C)(C)CCC[C@]3(C)[C@H]1C2 | 53.6
Cc1nc(-c2ccc(OCC(C)C)c(C#N)c2)sc1C(=O)O | 478
CN(C)CCCN\C1=C\2C(=O)N(C)C(=O)\N=C2N(C)C3=C1C=CC=C3 | 501
CN1C(=O)N[C@H](Cc2c[nH]c3c(Cl)cccc23)C1=O | 425
COc1cc(N2CCC(N(C)C)CC2)ccc1Nc1ncc(Cl)c(Nc2ccccc2P(C)(C)=O)n1 | 424
CONC(=O)c1ccccc1Nc1cc(Nc2cc(C)nn2C(C)C)ncc1Cl | 455
CNCC(O)c1ccc(O)cc1 (stereo unspecified) | 565
O=C(O)CNC(=O)c1nc(Cl)c2ccccc2c1O | 498
